assay: Metabolic stability in rat liver microsomes assessed as compound remaining after 30 mins by HPLC/MS analysis; type: ADME, Microsome; conditions: read-out: Stability
Could you please mark criterion met for values of remaining at 0.5 h below 20% and criterion not met for values at or above it?

A selection of reference data follows.
In [3]: df
Out[3]:
                           smiles_structure                cat
0  CCCCCCCCc1ccc(OCC(=O)Cn2ccc3cc(C(N)=O)ccc32)cc1  criterion not met
1  NC(=O)c1ccc2c(ccn2CC(=O)COc2cccc(-c3ccccc3)c2)c1      criterion met
2  O=C(COc1ccc(OCCOc2ccccc2)cc1)Cn1ccc2cc(C(=O)O)ccc21  criterion not met
3  CCCCCCCCOc1ccc(OCC(=O)Cn2ccc3cc(C(=O)O)ccc32)cc1  criterion not met
4  O=C(COc1cccc(-c2ccccc2)c1)Cn1ccc2cc(C(=O)O)ccc21      criterion met

Confirm or reject: remaining at 0.5 h of O=C(COc1ccc(Oc2ccccc2)cc1)Cn1ccc2cc(C(=O)O)ccc21 lies strictly below 20%
criterion met

Confirm or reject: remaining at 0.5 h of CCCCCCCOc1ccc(OCC(=O)Cn2ccc3cc(C(=O)O)ccc32)cc1 lies strictly below 20%
criterion not met

Confirm or reject: remaining at 0.5 h of O=C(COc1ccc(-c2ccc(F)cc2)cc1)Cn1ccc2cc(C(=O)O)ccc21 lies strictly below 20%
criterion met

Confirm or reject: remaining at 0.5 h of O=C(COc1ccc(-c2ccccc2)cc1)Cn1ccc2cc(C(=O)O)ccc21 lies strictly below 20%
criterion met

Confirm or reject: remaining at 0.5 h of O=C(COc1ccc(-c2cccc(F)c2)cc1)Cn1ccc2cc(C(=O)O)ccc21 lies strictly below 20%
criterion not met

Confirm or reject: remaining at 0.5 h of COc1cc(-c2ccccc2)ccc1OCC(=O)Cn1ccc2cc(C(=O)O)ccc21 lies strictly below 20%
criterion not met

// provenance: ChEMBL document CHEMBL1155440
